tested on: Aspergillus fumigatus (IOC 4526); experiment: Resazurin microtiter assay plate, antifungal MIC90; assay type: cell-based; conditions: resazurin colour change, RPMI 1640, 1 to 250 μM, 28 °C, 24–72 h; three independent experiments
Residues, ends and D or L forms follow the SMILES beside them.
Quick list: MIC90, Aspergillus fumigatus per entry.
quantity-kind: MIC90, Aspergillus fumigatus

CSCC[C@H](NC(=O)[C@H](CCC(N)=O)NC(=O)[C@@H](N)CO)C(=O)NCC(=O)N[C@@H](CCCNC(=N)N)C(=O)N[C@@H](CCSC)C(=O)N[C@@H](CO)C(=O)N[C@@H](CO)C(=O)N[C@@H](CCCNC(=N)N)C(=O)N[C@@H](CCCNC(=N)N)C(=O)N[C@@H](CCCNC(=N)N)C(=O)N[C@@H](Cc1ccccc1)C(=O)NCC(=O)N[C@@H](CCCCN)C(=O)O [PS2] (H-SQMGRMSSRRRFGK-OH) :: >250 µM
N=C(N)NCCC[C@H](NC(=O)CNC(=O)[C@@H]1CCCN1C(=O)CNC(=O)[C@@H](N)CO)C(=O)N[C@@H](CCCNC(=N)N)C(=O)N[C@@H](CO)C(=O)N[C@@H](CO)C(=O)N[C@@H](CCCNC(=N)N)C(=O)N[C@@H](CCCNC(=N)N)C(=O)N[C@@H](CCCNC(=N)N)C(=O)N[C@@H](CCCCN)C(=O)O [PS3] (H-SGPGRRSSRRRK-OH) :: >250 µM
N=C(N)NCCC[C@H](NC(=O)[C@H](Cc1c[nH]c2ccccc12)NC(=O)[C@H](CCCNC(=N)N)NC(=O)[C@@H](N)CO)C(=O)N[C@@H](Cc1c[nH]c2ccccc12)C(=O)N[C@@H](CCCCN)C(=O)N[C@@H](CO)C(=O)N[C@@H](CO)C(=O)N[C@@H](CCCCN)C(=O)N[C@@H](CCCCN)C(=O)NCC(=O)N[C@@H](CO)C(=O)NCC(=O)O [PS1] (H-SRWRWKSSKKGSG-OH) :: >250 µM
